target: D4ST1 (DS 4-O-sulfotransferase 1) (Homo sapiens); construct: D4ST1-HIS (amino acid 61–376); test: sulfotransferase activity assay ([…]PAPS incorporation) with recombinant enzyme
Sequence (Q8NCH0 61-376): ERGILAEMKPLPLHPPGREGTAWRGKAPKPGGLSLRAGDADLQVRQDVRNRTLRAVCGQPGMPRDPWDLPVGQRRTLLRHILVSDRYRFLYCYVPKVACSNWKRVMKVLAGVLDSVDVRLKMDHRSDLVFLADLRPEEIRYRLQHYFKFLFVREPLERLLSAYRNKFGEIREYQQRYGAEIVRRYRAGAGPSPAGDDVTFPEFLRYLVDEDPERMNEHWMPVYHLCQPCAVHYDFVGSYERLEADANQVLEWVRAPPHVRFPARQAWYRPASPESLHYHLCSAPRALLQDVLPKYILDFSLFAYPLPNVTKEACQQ
assay_metric: IC50 (µM)
Give the value in µM but do not write µM after it.

Incoming: So what's the measured IC50 for this one? O=c1c2ccccc2[se]n1-c1ccccc1
Outgoing: 1.5

* * *

molecular target: DS-epi1 (DS-epimerase 1) (Homo sapiens, UniProt Q9UL01); construct: truncated form (amino acid 23–775-HIS); assay: epimerase activity assay (3H release from [[…]-3H]dK4) with recombinant enzyme; dialysis irreversibility test; Lineweaver-Burk kinetics
assay_metric: pIC50
Note: pIC50 values are expressed as the negative base-10 logarithm of concentration in M.

Incoming: So what's the measured pIC50 for this one? O=c1c2ccccc2[se]n1-c1ccccc1
Outgoing: 5.15

* * *

Molecular target: HSepi (heparan sulfate glucuronyl C5-epimerase) (Homo sapiens, UniProt O94923)
Construct: full-length, myc-HIS fusion
Sequence (O94923 1-617): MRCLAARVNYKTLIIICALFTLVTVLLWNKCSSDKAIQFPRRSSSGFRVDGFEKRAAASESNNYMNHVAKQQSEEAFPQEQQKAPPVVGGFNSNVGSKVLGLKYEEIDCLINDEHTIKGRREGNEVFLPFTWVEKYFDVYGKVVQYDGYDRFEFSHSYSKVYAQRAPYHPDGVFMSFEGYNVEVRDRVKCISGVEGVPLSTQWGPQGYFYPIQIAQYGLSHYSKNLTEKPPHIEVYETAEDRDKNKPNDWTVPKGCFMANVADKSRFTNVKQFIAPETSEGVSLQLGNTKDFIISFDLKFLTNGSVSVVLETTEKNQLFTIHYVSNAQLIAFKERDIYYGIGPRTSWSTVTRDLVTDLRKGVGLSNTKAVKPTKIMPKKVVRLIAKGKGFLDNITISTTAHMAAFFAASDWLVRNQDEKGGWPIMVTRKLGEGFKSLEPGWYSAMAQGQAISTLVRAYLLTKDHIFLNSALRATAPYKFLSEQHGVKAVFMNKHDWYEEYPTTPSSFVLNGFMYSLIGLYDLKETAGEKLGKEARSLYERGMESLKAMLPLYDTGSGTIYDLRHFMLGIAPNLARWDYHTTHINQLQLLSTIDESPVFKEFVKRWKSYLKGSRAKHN
Experiment: epimerase activity assay (3H release from [[…]-3H]-N-sulfated K5 polysaccharide) with recombinant enzyme
assay_metric: IC50 (µM)
Give the value in µM but do not write µM after it.

Incoming: So what's the measured IC50 for this one? O=c1c2ccccc2[se]n1-c1ccccc1 [ebselen, 2-phenyl-1,2-benzoisoselenazol-3(2H)-one]
Outgoing: 0.8
